# PROTOCOL_NOTES: yeast display, Sf9 membrane polyspecificity reagent, FACS + sequencing; frameworks hold sequencing errors
METRIC: polyreactivity (PSR sort gate)

QVQLVESGGGLVQAGGSLRLSCAASGSIFRVYAMGWYRQAPGKERELVAGITWTGTRTYYADSVKGRFTISRDNAKNTVYLQMNSLKPEDTAVYYCAARYTIRYKRYDYWGQGTQVTVSS :: high polyreactivity
QVQQQESGGGLVQAVGSLRLSCAASGTIIQLTVMGRYRQAPGKERELVASIDYGGNTNYADSVKGRFTISRDNAKNTVYLHMNSLKPEDTAVYYCAKESRPAEGDSGYDYWGQGTLVTVSS :: low polyreactivity
QVQHVESGGRLVQAGGSLRLSCAPSGFIFSKYAMGWYRQAPGKERELVAAITRSGGRTYYADSVKGRFTISRDNAKNTVYLQMNSLKPEDTAVYYCAASWLYFGRDYWGQGTQVTVSS :: high polyreactivity
QVQLVESGGGLVQAGGSLRLSCAASGRNFPYYAMGWYRQAPGKEMELVAAITRGVRTHYADSVKGRFTISRDNAKNTVYLQMNSLKPEDTAVYYCAREDWGSYSDMDSWGQGTQVTVSS :: low polyreactivity
QVQLVESGGGLVQAGVSLRLRCAASASILSYYAMGWYRHAPGKERELVAAISRSGCTTYYADSVKGRFTISRDYAKNTVYLQMNSLIPEDTAVYYCAAVDRYYAYRDYYYWGQGTQVTVSS :: high polyreactivity
QVQLVESGGGLVQAGGSLRLSCAASGNTYYGNTKGWYRQAPGKERELVAAITSGGSTYYADSVKGRFTISRDNAKNTVYLQMNSLKPEDTAVYYCNVVFYEYSSVSYDYWGQGTQVTVSS :: high polyreactivity
QVQLVESGGGLVQAGGSLRLSCAASGSIIYNNAMGWYRQAPGKERELVAAIRSTGTRTYYADSVKGRFTISRDNAKNTVYLQMNSLKPEDTAVYYCAVGDYGLWSYVYWGQGTQVTVSS :: low polyreactivity
QVQLVESGGCIVQAGGSLRLSCSASGLLFYINPMGWYRQAPGKEREFVAGINRNGGSTYYADSVKGRFTISRDNALYSVYLQMNSLKPEDTAVYYCNADQYWDRYFSWGQGTQGTVSS :: low polyreactivity
QVQLVESGGGLVQAGGSLSLSCAASGSIFYVNTMGWYRQAHGKERELVADISSGDSTYYADSVKGRFTISRDNAKNTVYFQMNSLKPEDTAVYFCNADVYSWVSGKEGDYWGQGTQVTVSS :: low polyreactivity
QVKLVETGGGLVQAGGSLRLSCAASGITFAYYAMGWYRQAPGKERELVARISRRGGSTYYADSVKGRFTISRDNAKNNVYLQMNSLKPEDTAVYYCAARVVVPKPYVDGDYWGEGTQVTVSS :: high polyreactivity

Looking for the measured polyreactivity (PSR sort gate) of "QVQLVESGGGLVQAGGSLRITCAASASIYYRYAMGWNRQAPGKERELVAAITYSGGSTYYADSVKGRFTISRDNAKNPVYLQMNSLKPEDTAVYYCAKDYPPPISDYSRYYGYGYWGQGTQVTVSS" , can you help?
low polyreactivity

Looking for the measured polyreactivity (PSR sort gate) of "QVQLVESGGGLVQAGGSLRFSCPASGSILTGYAMGWYRQAPGKERELVAAINFSGDNTYYADSVKGRFTISRDNAKNTVFLPMNSLKPEDTAVYYCNADGRYAYVWYDYCGQGTQVTVSS" , can you help?
low polyreactivity
